Numbers sourced from PubChem BioAssay (Tox21).

# activity change, negative = cytotoxicity per entry
Experiment: p53 small molecule agonists, cell-based qHTS assay with rat liver microsomes: qHTS cell viability counter screen (AID 1963580); note: % is set by controls: 0 for no effect and ±100 for the full control effect; nearly all actives have a fitted effect of over 45% in size
Details: p53RE-bla HCT-116 + rat microsomes, ATP viability, 16 h; series mostly up to 66 µM
Results filed as inconclusive are left out. Calls of active or inactive are those of the source. Calls come from the whole dose curve.

A selection of reference data follows.
COMPOUND | REPORTED_RESULT
Nc1ccc2c(c1)CN1C(=O)c3ccccc3C1=N2 | -20.3% [at 13.5 µM] (inactive)
C=CCCCCCCCCCCCCCC | -3.36% [at 13.5 µM] (inactive)
N=C(N)N1CCc2ccccc2C1 | 0.465% [at 5.99 µM] (inactive)
COc1cc2ncnc(Nc3cccc(Cl)c3)c2cc1OC | -3.32% [at 13.5 µM] (inactive)
c1ccc2sc(SSc3nc4ccccc4s3)nc2c1 | 0.0229% [at 13.5 µM] (inactive)
CCCC(=O)O[C@]1(C(=O)COC(=O)CC)CC[C@H]2[C@@H]3CCC4=CC(=O)CC[C@]4(C)[C@H]3[C@@H](O)C[C@@]21C | 1.95% [at 13.5 µM] (inactive)

Form field: reported activity change, negative = cytotoxicity of `NC(N)=NCCC[C@H](N)C(=O)O`
1.88% [at 5.99 µM] (inactive)

Could you share which activity change, negative = cytotoxicity value was measured for `O=C(O)c1ccccc1Nc1cc(Cl)ccc1C(=O)O` ?
-20.9% [at 13.5 µM] (inactive)

Need activity change, negative = cytotoxicity, item `Cc1cc(=O)c2c(O)c3c(O)cc(=O)c4c3c3c(cc(O)c1c23)C(C)(C)C=4O`
-8.38% [at 13.5 µM] (inactive)

// lookup activity change, negative = cytotoxicity for CCC(Cl)CC(Cl)C(Cl)C(Cl)C(Cl)C(C)Cl (stereo not given)
-14% [at 13.5 µM] (inactive)

---

Molecular target: D(2) dopamine receptor (Homo sapiens) (UniProt P14416)
Sequence (P14416 whole entry, looked up): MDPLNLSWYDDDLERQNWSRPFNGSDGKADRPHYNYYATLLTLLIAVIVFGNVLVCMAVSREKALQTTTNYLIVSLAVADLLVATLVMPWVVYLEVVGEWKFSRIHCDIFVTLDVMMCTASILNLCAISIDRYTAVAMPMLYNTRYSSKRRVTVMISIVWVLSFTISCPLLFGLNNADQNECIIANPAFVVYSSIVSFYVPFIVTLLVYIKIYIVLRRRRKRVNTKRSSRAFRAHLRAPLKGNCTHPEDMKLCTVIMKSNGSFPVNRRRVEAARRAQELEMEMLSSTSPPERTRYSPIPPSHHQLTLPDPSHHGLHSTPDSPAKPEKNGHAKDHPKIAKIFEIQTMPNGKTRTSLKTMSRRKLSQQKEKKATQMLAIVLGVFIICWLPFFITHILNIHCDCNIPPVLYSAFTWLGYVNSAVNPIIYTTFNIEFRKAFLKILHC
Assay: Dopamine D2 receptor (DRD2) small molecule antagonists, cell-based qHTS assay (AID 1963595)
Conditions: HEK293-DRD2 cAMP HTRF antagonist mode; series mostly up to 92.4 µM
Description: National Center for Advancing Translational Sciences [NCATS] Division of Preclinical Innovation [DPI] U.S. Environmental Protection Agency [EPA] National Institutes of Environmental Health Sciences [NIEHS] National Toxicology Program [NTP] […] DRD2-Hek293 cells were dispensed at 600 cells/3uL/well in 1536-well white plates using a Multidrop Dispenser. […] The fluorescence intensity in the plates was measured at 340 nm excitation and 665 & 620 nm emission by an Envision plate reader.
Inconclusive results are not listed. Calls of active or inactive are those of the source. The call rests on the fitted dose curve; in most records, active means well fitted inhibition curve with a large enough effect in the signal ratio in the repeat runs, with a control signal flat; inconclusive means weak or mixed curves, or effect the other way; inactive means flat fitted curve, though single readings scatter; the % refers to the signal ratio.
The reply should name one outcome from 1 = active, 0 = inactive

MOLECULE | ASSAYED_SYSTEM | CLASS
COC(=O)/C=C(\C)CCC=C(C)C | D(2) dopamine receptor (Homo sapiens) (UniProt P14416) | 0
CC(=O)SCC(CC(=O)c1ccc(C)cc1)C(=O)O (configuration not stated) | D(2) dopamine receptor (Homo sapiens) (UniProt P14416) | 0
CC(C)c1ccccc1N | D(2) dopamine receptor (Homo sapiens) (UniProt P14416) | 0
OC[C@H]1O[C@@H]2O[C@H]3[C@H](O)[C@@H](O)[C@@H](O[C@H]4[C@H](O)[C@@H](O)[C@@H](O[C@H]5[C@H](O)[C@@H](O)[C@@H](O[C@H]6[C@H](O)[C@@H](O)[C@@H](O[C@H]7[C@H](O)[C@@H](O)[C@@H](O[C@H]8[C@H](O)[C@@H](O)[C@@H](O[C@H]9[C@H](O)[C@@H](O)[C@@H](O[C@H]1[C@H](O)[C@H]2O)O[C@@H]9CO)O[C@@H]8CO)O[C@@H]7CO)O[C@@H]6CO)O[C@@H]5CO)O[C@@H]4CO)O[C@@H]3CO | D(2) dopamine receptor (Homo sapiens) (UniProt P14416) | 0
CCO[Si](CCC1CCC2OC2C1)(OCC)OCC (configuration not stated) | D(2) dopamine receptor (Homo sapiens) (UniProt P14416) | 0

Record request — test call for COc1ccccc1N1CCN(CC(O)COc2cccc3ccccc23)CC1 (configuration not stated)
1

Test call for this molecule, please: `COc1ccc2cc(CCC(C)=O)ccc2c1`
0

Test call, this molecule: `Cc1ccc(Cl)cc1N`
0

Would you mind telling me which call this test gave `Cc1ccc(C)c([N+](=O)[O-])c1` ?
0
